# subject.of.test: T1, human UCN1 peptide (human, UniProt P55089 83-122)
# T1 peptide (looked up): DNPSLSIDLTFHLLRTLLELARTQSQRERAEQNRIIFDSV
# assay: cell-based or functional assay
Consider the following binders and their measured hUCN1 IC50/ CRH IC50 readings.
Quick note: give the figure in fold, leave out the unit.

Study these solved cases before continuing.
PR302341 (antibody, human IgG1, kappa, V domains shown, Series 10; mouse variable domains with human IgG1 wildtype Fc) VH: EVQLQQSGPELVKPGASVKMSCKASGYTFTDYFMKWVKQSHGESLEWIGVINPNNGDIFYNQKFKGKATLTVDKSSSTAFMQLNSLTSEDSAVYSCARGTDRALFAYWGQGTLVAVSA VL: DVLMTQTPLSLPVSLGDQASISCRSGQSIVHSDGNTYLEWYLQRPGQSPRLLIYKVSNRFSGVPDRFSGSGSGTDFTLKISRVGAEDLGIYYCFQGSHIPWTFGGGTKLEVKR; 40
PR302341-55 (antibody, human IgG1, kappa, V domains shown, Humanized, PTM-removed variant of PR302341) VH: QVQLVQSGAEVKKPGASVKVSCKASGYTFTDYFMKWVRQAPGQRLEWMGVINPNNADIFYNQKFKGRVTITRDTSASTAYMELSSLRSEDTAVYYCARGTDRALFAYWGQGTLVTVSS VL: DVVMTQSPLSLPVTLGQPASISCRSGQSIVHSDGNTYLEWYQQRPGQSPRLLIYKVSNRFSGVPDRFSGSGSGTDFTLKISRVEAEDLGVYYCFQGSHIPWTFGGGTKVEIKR; 267
PR302341-48 (antibody, human IgG1, kappa, V domains shown, Humanized, PTM-removed variant of PR302341) VH: QVQLVQSGAEVKKPGASVKVSCKASGYTFTDYFMKWVRQAPGQGLEWMGVINPNQGDIFYNQKFKGRVTMTVDKSTSTAYMELSSLRSEDTAVYYCARGTDRALFAYWGQGTLVTVSS VL: DVVMTQTPLSSPVTLGQPASISCRSGQSIVHSDANTYLEWYQQRPGQPPRLLIYKVSNRFSGVPDRFSGSGAGTDFTLKISRVEAEDLGVYYCFQGSHIPWTFGGGTKVEIKR; 59

Shifting focus to the binder that follows.
The reported value for PR302341-28 (antibody, human IgG1, kappa, V domains shown, Humanized, PTM-removed variant of PR302341) VH: QVQLVQSGAEVKKPGASVKVSCKASGYTFTDYFMKWVRQAPGQGLEWMGVINPNQGDIFYNQKFKGRVTMTVDKSISTAYMELSRLRSDDTAVYYCARGTDRALFAYWGQGTLVTVSS VL: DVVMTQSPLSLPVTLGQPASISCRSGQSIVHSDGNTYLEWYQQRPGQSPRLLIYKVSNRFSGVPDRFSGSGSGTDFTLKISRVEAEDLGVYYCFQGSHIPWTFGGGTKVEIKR in terms of hUCN1 IC50/ CRH IC50 is 124
